Source: PubChem BioAssay AID192

Documented T/C across a set of compounds
Tested on: BDF1 mice, B16 melanoma ip, median survival T/C
measurement_protocol: NCI In Vivo Anticancer Drug Screen. Data for tumor model B16 Melanoma (intraperitoneal) in B6D2F1 (BDF1) mice
condition_notes: endpoint: median survival time; dose: 100.0 mg/kg/injection; schedule: Q01DX009 (ip); vehicle: Klucel (hydroxypropylcellulose) (HPC); higher = longer survival
Inconclusive results and toxic doses are left out.

compound	quantity_measured	reported_value
CC(C)(COC(=O)c1ccccc1)COC(=O)c1ccccc1	T/C	111 % of control
COC1=C(N=[N+]=[N-])C(=O)C(OC)=C(N=[N+]=[N-])C1=O	T/C	91 % of control
CC(C)(C)CC(N)=O	T/C	100 % of control
C=Cc1cc(OC)c2c(c1)c(=O)oc1c2cc(OC)c2c(O)ccc(C3OC(C(C)O)C(O)C3O)c21 (stereo not drawn)	T/C	159 % of control
Cc1ccc(C)c(NC(=O)Nc2cccc(Cl)c2)c1	T/C	102 % of control
C=CCNC(=S)NCC=C	T/C	97 % of control
O=C(Nc1ccccc1F)c1ccc(Cl)c(Cl)c1	T/C	87 % of control
CCCCCCCCC(=O)N1CC(C)OC(C)C1 (stereo not drawn)	T/C	103 % of control
Cc1cccc(C)c1N1C(=O)CCC1=O	T/C	101 % of control
CCOc1ccc(NC(=O)c2cccc(C(=O)Nc3ccc(OCC)cc3)c2)cc1	T/C	103 % of control

Which T/C reading was recorded for the compound C1CC[N-]CC1.CC(=N\O)/C(C)=N/O.CC(=N\O)/C(C)=N/O.[CH-]1CCCCC1.[Co+2] ? 94 % of control

Follow-up item: CCOC12c3cc(OC)ccc3N(S(=O)(=O)c3ccc(C)cc3)CC1C2(Br)Br (stereo not drawn) 93 % of control

====

Tested on: BDF1 mice, B16 melanoma ip, median survival T/C
measurement_protocol: NCI In Vivo Anticancer Drug Screen. Data for tumor model B16 Melanoma (intraperitoneal) in B6D2F1 (BDF1) mice
condition_notes: endpoint: median survival time; dose: 100.0 mg/kg/injection; schedule: Q01DX009 (ip); vehicle: Klucel (hydroxypropylcellulose) (HPC); higher = longer survival
Toxic doses and inconclusive results are not listed.
Documented T/C across a set of compounds

compound	reported_value
CCOc1ccccc1NC(=O)Nc1ccccc1	102 % of control
COC(=O)c1cc(Cl)ccc1OCC(=O)Nc1ccc([N+](=O)[O-])cc1	100 % of control
C=CCNC(=S)Nc1ccc(C)cc1	93 % of control
CC(=O)N(C(C)=O)c1ccc(N=Nc2ccccc2C)cc1C	100 % of control
CCN(CC)C(=O)C1CN2CCc3cc(OC)c(OC)cc3C2CC1OC(C)=O (configuration not stated)	100 % of control

Enter reported T/C observed with BDF1 mice, B16 melanoma ip, median survival T/C for Cc1ccc(Cl)cc1NC(=O)c1ccccc1C(=O)O 93 % of control

Follow-up item: Cc1cccc(C)c1NC(=O)c1ccc(Cl)cc1Cl 92 % of control

Follow-up item: CCOC(=O)/C=C(\C)Nc1ccc(F)cc1 88 % of control

Follow-up item: COc1ccc2c(oc(=O)c3c(Cl)nc(C)c(C)c32)c1OC 97 % of control

Follow-up item: O=C(/C=C/c1cccc2ccccc12)c1ccc(Cl)cc1 96 % of control

Follow-up item: CCc1ccccc1NC(=O)Nc1ccccc1 90 % of control

Follow-up item: COC(=O)C1(C(=O)OC)C=CCCC1=O 99 % of control

====

System: BDF1 mice, B16 melanoma ip, median survival T/C
measurement_protocol: NCI In Vivo Anticancer Drug Screen. Data for tumor model B16 Melanoma (intraperitoneal) in B6D2F1 (BDF1) mice
condition_notes: endpoint: median survival time; dose: 50.0 mg/kg/injection; schedule: Q01DX009 (ip); vehicle: Klucel (hydroxypropylcellulose) (HPC); higher = longer survival
Inconclusive results and toxic doses are left out.
Documented T/C across a set of compounds

Answered examples (6):
molecule	experimental_target	reported_value
CC(C)(C)C1CCCCC1	BDF1 mice, B16 melanoma ip, median survival T/C	95 % of control
CCOC(=O)C(=Cc1ccc(C=C(C(=O)OCC)C(=O)OCC)cc1)C(=O)OCC	BDF1 mice, B16 melanoma ip, median survival T/C	93 % of control
O=[N+]([O-])c1cc(C(F)(F)F)ccc1F	BDF1 mice, B16 melanoma ip, median survival T/C	109 % of control
COC(=O)c1cc([N+](=O)[O-])cc2ccccc12	BDF1 mice, B16 melanoma ip, median survival T/C	100 % of control
OCc1cc(Cl)ccc1O	BDF1 mice, B16 melanoma ip, median survival T/C	103 % of control
N#C/C(=C\c1ccncc1)c1csc2ccccc12	BDF1 mice, B16 melanoma ip, median survival T/C	88 % of control

Which T/C reading was recorded for the compound O=C1C(Cl)=C(c2ccccc2)C(=O)C(Cl)=C1c1ccccc1 ? 94 % of control

Follow-up item: CCN(CC)CCCC#CCN1CCCC1 93 % of control

Follow-up item: CC(C)C(=O)NNCc1ccccc1 90 % of control

Follow-up item: O=C(O)[C@@H]1[C@H]2C[C@H]3c4[nH]c5ccccc5c4CCN3C[C@@H]2CC[C@@H]1O 88 % of control

Follow-up item: COc1ccccc1NC(N)=S 103 % of control

Follow-up item: O=C1/C(=C\c2ccc([N+](=O)[O-])cc2)CS(=O)(=O)C/C1=C/c1ccc([N+](=O)[O-])cc1 91 % of control

====

System: BDF1 mice, B16 melanoma ip, median survival T/C
measurement_protocol: NCI In Vivo Anticancer Drug Screen. Data for tumor model B16 Melanoma (intraperitoneal) in B6D2F1 (BDF1) mice
condition_notes: endpoint: median survival time; dose: 1.0 mg/kg/injection; schedule: Q01DX009 (ip); vehicle: saline; higher = longer survival
Toxic doses and inconclusive results are not listed.
quantity_measured: T/C

Answered examples (5):
compound	reported_value
COc1cc(NC(N)=O)ccc1Nc1c2ccc(N)cc2nc2cc(N)ccc12	102 % of control
Nc1ccc2nc3ccc(=O)cc-3n(-c3ccccc3)c2c1	104 % of control
COC12C(COC(N)=O)C3=C(C(=O)C(C)=C(N)C3=O)N1CC1C2N1C (stereo not drawn)	114 % of control
C1CN(P2(N3CC3)=NP(N3CC3)(N3CC3)=NP(N3CC3)(N3CC3)=N2)CCO1 (stereo not drawn)	117 % of control
c1ccc2c(c1)ccc1c[n+]3ccccc3cc12	97 % of control

Which T/C reading was recorded for the compound C[C@]12CC[C@H](OC3OC(CO)C(O)C(O)C3O)C[C@H]1CC[C@@H]1[C@@H]2CC[C@]2(C)[C@@H](C3=CCOC3=O)CC[C@]12O (stereo partly drawn) ? 92 % of control

Follow-up item: CC[n+]1ccc(Nc2ccc(NC(=O)c3ccc(Nc4cc[n+](CC)c5ccc(N)cc45)cc3)cc2)cc1 102 % of control

Follow-up item: COCCOC1=C(N2CC2)C(=O)C(OCCOC)=C(N2CC2)C1=O 110 % of control

====

Test system: BDF1 mice, B16 melanoma ip, median survival T/C
measurement_protocol: NCI In Vivo Anticancer Drug Screen. Data for tumor model B16 Melanoma (intraperitoneal) in B6D2F1 (BDF1) mice
condition_notes: endpoint: median survival time; dose: 3.13 mg/kg/injection; schedule: Q01DX009 (ip); vehicle: saline with Tween-80; higher = longer survival
Inconclusive results and toxic doses are left out.
quantity_measured: T/C

Which T/C reading was recorded for the compound O=S(=O)(O)O.[O]=[V] ? 97 % of control

Follow-up item: N#CC(C#N)=CN1CCCCCC1 107 % of control

Follow-up item: O=[N+]([O-])c1ccc(CSc2ncnc3c2ncn3C2OC(CO)C(O)C2O)cc1 (stereo unspecified) 90 % of control

====

Documented T/C across a set of compounds
Tested on: BDF1 mice, B16 melanoma ip, median survival T/C
measurement_protocol: NCI In Vivo Anticancer Drug Screen. Data for tumor model B16 Melanoma (intraperitoneal) in B6D2F1 (BDF1) mice
condition_notes: endpoint: median survival time; dose: 3.12 mg/kg/injection; schedule: Q01DX009 (ip); vehicle: saline with Tween-80; higher = longer survival
Procedure: The antitumor activity of compounds was measured in mice bearing transplantable tumors. Survival or tumor size were measured and the results are expressed as the measurement made in the treated group (T) divided by the measurement made in the vehicle treated control group (C). The tumor model used in this assay is B16 Melanoma (intraperitoneal) in B6D2F1 (BDF1) mice
Inconclusive results and toxic doses are left out.

molecule	T/C
NC(=O)/C=C/C(=O)c1c(Cl)cccc1Cl	112 % of control

Which T/C reading was recorded for the compound S=C=NCCCCCCCCCCCCN=C=S ? 99 % of control

Follow-up item: Cc1cnc(/C=N\NC(N)=S)c2cccc(N)c12 100 % of control

Follow-up item: O=c1cc(CCl)[nH]nc1CCl 123 % of control
